SH2 binding enrichment: recorded values
Molecular target: SHP2-C SH2;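 further: peptide library displayed on the E. coli surface as eCPX fusions, selected cells deep-sequenced, score is each peptide's frequency after selection divided by its frequency in the input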
Assay: SH2 binding enrichment of the phosphorylated peptide, bacterial display (enrichment ratio); higher = better substrate or ligand; peptides without Tyr show the background
API doc: respond with a numeric literal and nothing else, no unit.

Below are worked cases with known answers.
>  <construct_sequence>
PSSRDYKHNIK [PIGN_Y227]

>  <SH2 binding enrichment>
0.774

$$$$
>  <construct_sequence>
PIPAAYNKFDQ [CDC73_Y290_R292K_YF]

>  <SH2 binding enrichment>
0.86

$$$$
>  <construct_sequence>
GVFSRYFTTFD [CLCA1_Y661_YF]

>  <SH2 binding enrichment>
0.789

$$$$
>  <construct_sequence>
RGYRQDAYDGK [HLA-A_Y140]

>  <SH2 binding enrichment>
0.458

$$$$
>  <construct_sequence>
RISRKYKKVRF [F8_Y442_G439S]

>  <SH2 binding enrichment>
0.636

$$$$

Input: Can you look up the measured SH2 binding enrichment of RLLVVFPWTQR [HBB_Y36_Y36F] for me?
Output: 1.95

Input: What about TYVVLYDAELT [ERCC4_Y581_R576T] ?
Output: 1.36
